// data source = ChEMBL document CHEMBL1134734

molecular target: Adenosine receptor A3 (Homo sapiens, UniProt P0DMS8); experiment: [3H]NECA […] binding in CHO cells expressing human Adenosine A3 receptor
Sequence (P0DMS8 whole entry): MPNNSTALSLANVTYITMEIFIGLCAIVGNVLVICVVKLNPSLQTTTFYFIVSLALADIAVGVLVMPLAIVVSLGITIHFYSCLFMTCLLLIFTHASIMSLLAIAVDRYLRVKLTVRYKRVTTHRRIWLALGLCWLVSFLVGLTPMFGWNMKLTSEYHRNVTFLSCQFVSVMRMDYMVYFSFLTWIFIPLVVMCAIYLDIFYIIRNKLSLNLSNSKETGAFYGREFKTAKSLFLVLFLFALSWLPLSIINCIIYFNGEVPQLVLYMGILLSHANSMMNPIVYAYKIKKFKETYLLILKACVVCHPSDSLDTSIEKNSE
Measure: Ki (nM)
Answers are plain numbers, in nM.

Consider the worked cases shown below.
Nc1ncnc2c1nc(/C=C/C(=O)c1ccccc1)n2[C@@H]1O[C@H](CO)[C@@H](O)[C@H]1O | 9830
CCn1c(C#Cc2ccccc2)nc2c(N)ncnc21 | 86

// next item, Ki requested
Q: State its Ki: Nc1ncnc2c1nc(C#Cc1ccccc1)n2[C@@H]1O[C@H](CO)C(O)C1O (single isomer, unassigned)
Result: 790

###

target: Adenosine receptor A2b (Homo sapiens, UniProt P29275); assay: Antagonistic activity against Adenosine A2B receptor
Sequence (P29275 whole entry): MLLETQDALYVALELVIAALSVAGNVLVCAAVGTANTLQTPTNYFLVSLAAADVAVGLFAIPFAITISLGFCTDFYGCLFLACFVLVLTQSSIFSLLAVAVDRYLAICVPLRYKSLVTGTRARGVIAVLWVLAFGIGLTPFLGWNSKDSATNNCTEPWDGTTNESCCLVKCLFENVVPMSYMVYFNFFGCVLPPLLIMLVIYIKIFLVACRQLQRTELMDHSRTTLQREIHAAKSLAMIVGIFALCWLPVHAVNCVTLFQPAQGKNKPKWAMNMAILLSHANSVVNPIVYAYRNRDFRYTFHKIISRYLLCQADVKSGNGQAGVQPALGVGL
Measure: IC50

Q: State IC50 (Adenosine receptor A2b (Homo sapiens, UniProt P29275)) of CCn1c(C#Cc2ccccc2)nc2c(N)ncnc21 .
Result: ≥ 100 µM

###

target: UniProtKB P30542; assay: Displacement of [3H]-CCPA from CHO cells expressing human recombinant Adenosine A1 receptor
Sequence (P30542 whole entry): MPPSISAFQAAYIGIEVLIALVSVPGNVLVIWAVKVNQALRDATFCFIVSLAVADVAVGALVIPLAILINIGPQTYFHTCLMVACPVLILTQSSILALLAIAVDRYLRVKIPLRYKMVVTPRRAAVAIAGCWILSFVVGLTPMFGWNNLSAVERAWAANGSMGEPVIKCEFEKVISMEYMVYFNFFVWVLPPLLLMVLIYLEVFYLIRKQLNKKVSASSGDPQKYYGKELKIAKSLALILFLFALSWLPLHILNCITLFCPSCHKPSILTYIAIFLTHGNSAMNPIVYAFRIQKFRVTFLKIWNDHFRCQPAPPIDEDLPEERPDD
pKi: −log10 of the molar value.
Measure: pKi

Nc1ncnc2c1nc(/C=C/C(=O)c1ccccc1)n2[C@@H]1O[C@H](CO)[C@@H](O)[C@H]1O | < 4.00
Nc1ncnc2c1nc(C#Cc1ccccc1)n2[C@@H]1O[C@H](CO)C(O)C1O (single isomer, unassigned) | < 4.00

Q: State its pKi: CCCCC#Cc1nc2c(N)ncnc2n1[C@@H]1O[C@H](CO)C(O)C1O (single isomer, unassigned)
Result: < 4.00

###

biological target: Adenosine receptor A2a (Homo sapiens, UniProt P29274); experiment: [3H]NECA […] binding in CHO cells expressing human recombinant A2A adenosine receptor
Sequence (P29274 whole entry): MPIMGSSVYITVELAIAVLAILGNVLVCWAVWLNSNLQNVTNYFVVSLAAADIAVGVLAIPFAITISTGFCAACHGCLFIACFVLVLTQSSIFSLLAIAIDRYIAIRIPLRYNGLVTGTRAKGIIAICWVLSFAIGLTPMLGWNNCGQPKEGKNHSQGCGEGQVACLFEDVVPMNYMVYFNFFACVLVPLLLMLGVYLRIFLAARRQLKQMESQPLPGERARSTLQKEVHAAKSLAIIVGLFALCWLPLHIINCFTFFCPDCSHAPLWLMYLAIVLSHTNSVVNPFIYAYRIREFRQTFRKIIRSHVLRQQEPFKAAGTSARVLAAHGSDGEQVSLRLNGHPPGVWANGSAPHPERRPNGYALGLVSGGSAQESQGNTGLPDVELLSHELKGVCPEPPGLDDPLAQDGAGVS
Measure: pKi
Numbers only, as −log10 of the molar value.

Nc1ncnc2c1nc(/C=C/C(=O)c1ccccc1)n2[C@@H]1O[C@H](CO)[C@@H](O)[C@H]1O | 4.33

// next item, pKi requested
Q: State its pKi: CCn1c(C#Cc2ccccc2)nc2c(N)ncnc21
Result: 6.22
